Readings of pIC50 for the listed molecules
System: 885512-296-R-J2-PDC complex spheroid viability
PROTOCOL DESCRIPTION: Anticancer human tumor 885512-296-R-J2-PDC patient-derived breast carcinoma cell line growth inhibition
STATED CONDITIONS: curve of first compound; second compound 1 µM
pIC50: −log10 of the molar value.

Worked cases, answers included:
[in] Write down the reported pIC50 of CCc1c2c(nc3ccc(O)cc13)-c1cc3c(c(=O)n1C2)COC(=O)[C@]3(O)CC + NC1CCC(NC2CC2c2ccccc2)CC1 , test system: 885512-296-R-J2-PDC complex spheroid viability.
[out] > 9.02

[in] Write down the reported pIC50 of Nc1ccn(C2OC(CO)C(O)C2(F)F)c(=O)n1 (centres undefined) + NC1CC1c1ccc(-c2cccc(O)c2)cc1 , test system: 885512-296-R-J2-PDC complex spheroid viability.
[out] > 9.02

[in] Write down the reported pIC50 of NS(=O)(=O)OCC1CC(n2ccc3c(NC4CCc5ccccc54)ncnc32)CC1O (centres undefined) + NC1CCC(NC2CC2c2ccccc2)CC1 , test system: 885512-296-R-J2-PDC complex spheroid viability.
[out] > 8.02

***
[in] Write down the reported pIC50 of COc1cc(Nc2ncc3c(n2)-c2ccc(Cl)cc2C(c2c(F)cccc2OC)=NC3)ccc1C(=O)O + NC1CC1c1ccc(-c2cccc(O)c2)cc1 , test system: 885512-296-R-J2-PDC complex spheroid viability.
[out] > 8.50

###

Readings of viability, T/C for the listed compounds
System: 885512-296-R-J2-PDC complex spheroid viability
PROTOCOL DESCRIPTION: Anticancer human tumor 885512-296-R-J2-PDC cell line growth inhibition;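 also: spheroids exposed to agents for 7 days before viability read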
STATED CONDITIONS: second compound 0.1 µM; first compound 0.949 µM; stronger effect = lower value

[in] What viability, T/C value was documented for this compound, NS(=O)(=O)OCC1CC(n2ccc3c(NC4CCc5ccccc54)ncnc32)CC1O (stereo not drawn) + NC1CC1c1ccc(-c2cccc(O)c2)cc1 ?
[out] 1.42%

[in] What viability, T/C value was documented for this compound, NS(=O)(=O)OCC1CC(n2ccc3c(NC4CCc5ccccc54)ncnc32)CC1O (stereo not drawn) + NC1CCC(NC2CC2c2ccccc2)CC1 ?
[out] 8.58%

[in] What viability, T/C value was documented for this compound, CCN(c1cc(-c2ccc(CN3CCOCC3)cc2)cc(C(=O)NCc2c(C)cc(C)[nH]c2=O)c1C)C1CCOCC1 + NC1CC1c1ccc(-c2cccc(O)c2)cc1 ?
[out] 19.2%

###

System: 885512-296-R-J2-PDC complex spheroid viability
PROTOCOL DESCRIPTION: Anticancer human tumor 885512-296-R-J2-PDC cell line growth inhibition;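 also: spheroids exposed to agents for 7 days before viability read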
STATED CONDITIONS: second compound 10 µM; first compound 0.000316 µM; stronger effect = lower value
Readings of viability, T/C for the listed molecules
Record the value in %, omitting the unit from your answer.

Worked cases, answers included:
[in] What viability, T/C value was documented for this molecule, Cn1ncnc1C1c2n[nH]c(=O)c3cc(F)cc(c23)NC1c1ccc(F)cc1 (stereo not drawn) + NC1CCC(NC2CC2c2ccccc2)CC1 ?
[out] 92

[in] What viability, T/C value was documented for this molecule, CC[C@@]1(O)C(=O)OCc2c1cc1n(c2=O)Cc2cc3c(CN(C)C)c(O)ccc3nc2-1 + NC1CCC(NC2CC2c2ccccc2)CC1 ?
[out] 59.4

Next molecule, viability, T/C to be filled in.
[in] What viability, T/C value was documented for this molecule, Cn1ncnc1C1c2n[nH]c(=O)c3cc(F)cc(c23)NC1c1ccc(F)cc1 (stereo not drawn) + NC1CC1c1ccc(-c2cccc(O)c2)cc1 ?
[out] 72.4

###

Test system: 885512-296-R-J2-PDC complex spheroid viability
PROTOCOL DESCRIPTION: Anticancer human tumor 885512-296-R-J2-PDC cell line growth inhibition;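 also: spheroids exposed to agents for 7 days before viability read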
STATED CONDITIONS: curve of first compound; second compound 3.16 µM
Description: Multicellular complex tumor spheroid response to LSD1 Inhibitor Iadademstat in combination with a variety of drugs and investigational agents in selected tumor cell lines The current study was undertaken to assess response to LSD1 inhibitors in combination with standard-of-care drugs and investigational agents in solid tumor complex spheroid models as well as in the K-562 leukemia. […] Compounds. […] If the clinical Cmax for an agent had not been determined, the highest concentration tested was 10 microM. […]
Readings of IC50 for the listed compounds

Worked cases, answers included:
[in] Write down the reported IC50 of Nc1ccn(C2OC(CO)C(O)C2(F)F)c(=O)n1 (stereo unspecified) + NC1CC1c1ccc(-c2cccc(O)c2)cc1 , test system: 885512-296-R-J2-PDC complex spheroid viability.
[out] < 0.949 nM

[in] Write down the reported IC50 of CCc1c2c(nc3ccc(O)cc13)-c1cc3c(c(=O)n1C2)COC(=O)[C@]3(O)CC + NC1CCC(NC2CC2c2ccccc2)CC1 , test system: 885512-296-R-J2-PDC complex spheroid viability.
[out] < 0.949 nM

[in] Write down the reported IC50 of Nc1ccn(C2OC(CO)C(O)C2(F)F)c(=O)n1 (stereo unspecified) + NC1CCC(NC2CC2c2ccccc2)CC1 , test system: 885512-296-R-J2-PDC complex spheroid viability.
[out] < 0.949 nM

[in] Write down the reported IC50 of NS(=O)(=O)OCC1CC(n2ccc3c(NC4CCc5ccccc54)ncnc32)CC1O (stereo unspecified) + NC1CC1c1ccc(-c2cccc(O)c2)cc1 , test system: 885512-296-R-J2-PDC complex spheroid viability.
[out] < 9.49 nM

***
[in] Write down the reported IC50 of CC(C)c1c(-c2ccccc2)nc2c(C#N)c[nH]n2c1=O + NC1CC1c1ccc(-c2cccc(O)c2)cc1 , test system: 885512-296-R-J2-PDC complex spheroid viability.
[out] > 10000 nM

[in] Write down the reported IC50 of CCc1c2c(nc3ccc(O)cc13)-c1cc3c(c(=O)n1C2)COC(=O)[C@]3(O)CC + NC1CC1c1ccc(-c2cccc(O)c2)cc1 , test system: 885512-296-R-J2-PDC complex spheroid viability.
[out] < 0.949 nM
